Ref: ChEMBL document CHEMBL1157539

For each entry below, report its Inhibition value.
system: HepG2; assay: GSK_TCMDC: Percent inhibition of human HepG2 cell line. Test compounds present at 10uM.; assay type: functional
Write the value in % as a bare number.

Request: So what does the record say about Inhibition for `COc1ccccc1CCNC(=O)c1cnc(N2CCN(c3ccncc3)CC2)c(Cl)c1.O=C(O)C(F)(F)F` ?
Response: 30

Request: Would you kindly repeat that for O=C(NCC1CCN(Cc2cccc(F)c2)C1)c1cc(-c2cccc(C(F)(F)F)c2)cs1.O=C(O)C(F)(F)F (configuration not stated) ?
Response: 31

Request: Another compound to look at: `O=C(NCc1cccc(F)c1)Nc1cccc(-c2ccc(-c3nc4cc(C(F)(F)F)ccc4[nH]3)cc2)c1`
Response: 50

Request: Try CC(CN(C)C)Oc1ccc2nc(-c3cccc(OCc4ccccc4)c3)[nH]c2c1C#N (configuration not stated) next.
Response: 57

Request: Moving on to `CS(=O)(=O)c1ccc(CNCc2ccc(-c3cccc(-c4nc5cc(F)ccc5[nH]4)c3)cc2)cc1.O=C(O)C(F)(F)F`
Response: 33

Request: Record: Cc1cc(C)cc(OCC(O)CN(Cc2cc(Cl)cc(Cl)c2)C(=O)Nc2ccc([N+](=O)[O-])cc2)c1 (configuration not stated)
Response: 0

Request: Cool, now `O=C(Nc1ccc(C(F)(F)F)cc1)c1ccc(NCCCN2CCCCCC2)c([N+](=O)[O-])c1`
Response: 42

Request: Repeat with `COC(=O)c1ccc2nc(-c3cc(OC)c(O)c(C(=O)NC4CCN(Cc5ccccc5)CC4)c3)[nH]c2c1`
Response: 8

Request: Input `COCCCNC(=O)C1CCN(C(c2ccc(Cl)cc2)c2ccc(Cl)cc2)CC1`
Response: 5

Request: For `COc1ccc(Cn2c(Nc3cccc(C(F)(F)F)c3)nc3cc(C(=O)NCCN4CCCC4)ccc32)cc1Cl` then?
Response: 11

Request: Field entry: `CCCN(CCC)CCCN(CCCN(CCC)CCC)c1cc(C)nc(Nc2ccc(Cl)cc2)n1.Cl`
Response: 34

Request: Now the same for O=C(NC1CCC(N2CCC(c3nc4ccccc4s3)CC2)CC1)c1cc2ccccc2[nH]1 (configuration not stated)
Response: 23

Request: Next compound up: `CC1(C)N=C(N)N=C(Nc2ccc(F)c(F)c2)N1.Cl`
Response: 59

Request: Also `CCN1CCN(CCNc2c3ccccc3nc3ccccc23)CC1.Cl` ?
Response: 45

Request: Repeat with `CN(c1ccccc1C(=O)Nc1ccccc1Oc1ccccc1)S(=O)(=O)c1ccccc1`
Response: 2

Request: Queued: `O=C(NCCCCN1CCC(c2c[nH]c3ccc(-c4ccccc4)cc23)CC1)c1ccc(-c2ccccc2)cc1.O=C(O)C(=O)O`
Response: 48

Request: Please give the result for COc1cc2nc(N3CC(C)N(C(=O)Cc4ccc(-c5ccccc5)cc4)C(C)C3)nc(N)c2cc1OC (configuration not stated) too.
Response: 26

Request: And `O=C(Nc1ccc(-c2ccc(-c3nc4cc(C(F)(F)F)ccc4[nH]3)s2)cc1)c1c[nH]cn1` ?
Response: 66

Request: Okay, and `Cc1cc2nc(-c3cc(-c4cccc(NS(C)(=O)=O)c4)cnc3N)[nH]c2cc1C` ?
Response: 43

Request: Entry to check: `COCC(=O)N(Cc1ccccc1-c1cccc(CNCc2ccc3c(c2)OCO3)c1)C1CCN(Cc2ccccc2)CC1.O=C(O)C(F)(F)F`
Response: 33

Request: Now the compound CC1CN(c2ccc(NC(=O)c3ccc(F)cc3)cc2)CCN1Cc1cccc(F)c1.O=C(O)C(F)(F)F (configuration not stated)
Response: 11

Request: Okay, and `O=C(NCCCN1CCCCC1)c1cccc(Nc2nccc(Nc3ccc(Oc4ccccc4)cc3)n2)c1` ?
Response: 47

Request: And what about the compound `Cc1ccc2c(N/N=C/c3ccccc3[N+](=O)[O-])cc(C)nc2c1` ?
Response: 13

Request: Try `Cc1cccc(-c2cc3cc(Nc4ccnc5cc(-c6nccs6)ccc45)ccc3[nH]2)c1.Cl` next.
Response: 0

Request: # iterate: `Cn1nccc1C(=O)NCCNCc1cccc(-c2ccc(-c3nc4ccccc4[nH]3)s2)c1.O=C(O)C(F)(F)F`
Response: 22

Request: Next compound: `Cc1cc(N[C@@H](CC(C)C)C(=O)NCCc2ccccc2)nc(NCC2CCCCC2)n1.O=C(O)C(F)(F)F`
Response: 19

Request: And `Cc1cnc2ccc(NS(=O)(=O)c3ccc4c(Cl)cccc4c3)cc2c1N1CCNCC1.Cl` ?
Response: 24

* * *

tested on: Plasmodium falciparum; assay: GSK_TCMDC: Inhibition of Plasmodium falciparum Dd2 in whole red blood cells, using parasite LDH activity as an index of growth. Test compounds present at 2uM; type: functional
value.kind: Inhibition (%)
Give just the number in %; leave the unit off.

Request: Record request: Inhibition value, item `CN1CCCN(c2ccnc3cc4c(cc23)N(C(=O)c2ccc(Cl)cc2Cl)CC4)CC1.Cl`
Response: 51

Request: And for `CCN(CC)CCOC(=O)c1ccc(NC(=O)c2cc(-c3ccc(C)cc3)nc3ccccc23)cc1.Cl` ?
Response: 12

Request: Here is the next compound: `Br.COc1cc(CCON2C(N)=NC(N)=NC2(C)C)cc(OC)c1OC`
Response: 95

Request: Would you kindly repeat that for `Cc1cnc(Nc2ccccc2)nc1N[C@@H](CCCN)C(=O)Nc1ccccc1.O=C(O)C(F)(F)F` ?
Response: 0

Request: What about `O=C(NC1CCCC1)c1ccc(N2CCC(NCc3cc4cc(Cl)ccc4[nH]3)CC2)cc1` ?
Response: 0

* * *

system: HepG2; test: GSK_TCMDC: Percent inhibition of human HepG2 cell line. Test compounds present at 10uM.; assay type: functional
Record form. Attribute: Inhibition. Fill in for each entry.
Give the value; after it, write the unit.

Request: Find the recorded Inhibition belonging to `COc1ccc2nc(C)cc(NC3Cc4ccccc4C3)c2c1.Cl` and report it.
Response: 20%

Request: Please do the same for `C/C=C/COc1ccc(-c2c(C)[nH]c(C)c(Cl)c2=O)cc1` as well.
Response: 0%

Request: Item: `CC(C)C[C@@H](C(=O)N[C@@H](CCCCNC(=O)OCc1ccccc1)C(=O)Nc1nccs1)[C@H](C)N(O)C=O`
Response: 0%

Request: Also `CCc1nc2nc(C)cc(Nc3ccc(F)c(Cl)c3)n2n1` , if possible.
Response: 2%

Request: Subsequent entry: `COc1ccc2nccc(N(C)CC3(O)CCN(CCc4ccc5c(c4)NC(=O)CS5)CC3)c2n1.Cl`
Response: 10%

Request: Continue with CCOC(=O)CCc1cc(F)c(F)c(OC[C@H](O)CNC(C)(C)C(O)c2ccc3ccccc3c2)c1.Cl (some centres undefined)
Response: 12%

Request: Continue with `Cc1ccc(-n2c(=O)c3cccnc3n2CC(=O)Nc2cccc(C)c2C)cc1`
Response: 9%

Request: Try the compound `CCOc1cc(C)ccc1C1CCN(CCCCNC(=O)c2ccc(NC(=O)c3cc(Cl)cc(Cl)c3)cc2)CC1`
Response: 4%

Request: Further, for COc1ccc(C2C(C(=O)Nc3cc(OC)c(OC)c(OC)c3)c3cc(OC)c(OC)cc3C(=O)N2C)cc1 (centres undefined) ?
Response: 9%

Request: Repeat for the following compound: `CN(C)C(C)(C)CN(Cc1ccc(-c2ccc(C(F)(F)F)cc2)cc1)C(=O)Cn1c(CCc2cccc(F)c2F)nc(=O)c2ccccc21.O=C(O)C(O)C(O)C(=O)O`
Response: 64%

Request: Continue with `O=C(NCCCN1CCN(c2cccc(Cl)c2)CC1)c1ccc(-c2nc3cc(Cl)c(Cl)cc3[nH]2)cc1`
Response: 3%

Request: What about CC1CCCCN1CCCNc1nc(NCc2ccccc2)c2ccccc2n1 (centres undefined) ?
Response: 24%

Request: One more compound: `CC1(C)CC(=O)c2c(O)cc(OCc3ccncc3)cc2O1.Cl`
Response: 80%

Request: Now consider `CC(=O)Nc1nc(C(=O)Nc2ccc(-c3cccc(-c4nc5cc(F)ccc5[nH]4)c3)cc2)cs1` and answer again.
Response: 86%

* * *

system: HepG2; test: GSK_TCMDC: Percent inhibition of human HepG2 cell line. Test compounds present at 10uM.; format: functional
Provide the reported Inhibition of each item.
Report only the number, with the unit % understood.

Request: Please give the measured Inhibition for this molecule: Cl.N#Cc1ccc2c(c1)CCN(CCC1CCC(NC(=O)/C=C/c3cnc4ccccc4c3)CC1)CC2 (stereo unspecified)
Response: 22

Request: Now consider `COc1ccccc1Nc1nc(C)cc(NCc2ccc(-n3ccnc3)cc2)n1` and answer again.
Response: 5

Request: Moving on to CSc1ccc(CN2CCC(CNC(=O)c3cc(-c4ccccc4F)cs3)C2)cc1.O=C(O)C(F)(F)F (stereo unspecified)
Response: 32

Request: Queued: CO/C(=C\C=C\c1cc2cc(Cl)c(Cl)cc2[nH]1)C(=O)NCCCN1CC(C)N(C)CC1C (stereo unspecified)
Response: 38

Request: For `O=C(NCCCCN1CC=C(c2ccc3c(c2OCC2CC2)CCCC3)CC1)c1ccc(-c2ccc(C(F)(F)F)cc2)cc1` then?
Response: 25

Request: Same for CC(Oc1ccc(NC(=O)c2cccs2)cc1)C(=O)c1ccc(Cl)cc1 (stereo unspecified)
Response: 0

Request: Also `COc1cc2nc(SCC(C)C)n(CCCn3ccnc3)c(=N)c2cc1OC` ?
Response: 15

Request: Also need COc1ccc2nccc(N3CCC(SCCNCc4cc5c(cn4)OCCO5)C3)c2n1.Cl (stereo unspecified) , thanks.
Response: 30

Request: Param item: CC1CC(NCCCNc2cc(=O)c3ccccc3[nH]2)c2c1cc(Cl)c(Cl)c2Cl (stereo unspecified)
Response: 1

Request: How about `O=C(NC1CCN(Cc2ccc(Cl)cc2)CC1)c1cn(-c2ccccc2)nc1-c1cccnc1` ?
Response: 13

Request: Try this molecule next: OC(CNCc1ccccc1OCc1ccccc1)c1cccc(Cl)c1 (stereo unspecified)
Response: 0

Request: Consider next the molecule COC(=O)c1cccc(NC(=O)NC2CCN(c3ccnc(Nc4cc(OC)c(OC)c(OC)c4)n3)C2)c1 (stereo unspecified) in the same way.
Response: 7

Request: What do you get for `Cc1c(CN2CCCCC2)cccc1OCCCNc1nc(NCCc2ccc(O)cc2)nc(N2CCNCC2)n1.O=C(O)C(F)(F)F` ?
Response: 26

Request: Same again, this time with O=C(Nc1cc(F)cc(F)c1)N1CCOC(CCN2CCC3(CCc4ccccc43)CC2)(c2ccc(Cl)c(Cl)c2)C1 (stereo unspecified)
Response: 32

Request: // same read-out, input: `COCCCNC(=N)c1ccc(NC(=O)c2ccc(C(=O)Nc3ccc(C(=N)NCCCOC)cc3)cc2)cc1.Cl`
Response: 33

Request: Okay, and `CCOC(=O)NC1=NC(C)(C)N(OCc2ccc(Cl)c(Cl)c2)C(NC(=O)OCC)=N1` ?
Response: 65
